Target: Adenosine receptor A3 (Homo sapiens, UniProt P0DMS8)
Sequence (P0DMS8 whole entry): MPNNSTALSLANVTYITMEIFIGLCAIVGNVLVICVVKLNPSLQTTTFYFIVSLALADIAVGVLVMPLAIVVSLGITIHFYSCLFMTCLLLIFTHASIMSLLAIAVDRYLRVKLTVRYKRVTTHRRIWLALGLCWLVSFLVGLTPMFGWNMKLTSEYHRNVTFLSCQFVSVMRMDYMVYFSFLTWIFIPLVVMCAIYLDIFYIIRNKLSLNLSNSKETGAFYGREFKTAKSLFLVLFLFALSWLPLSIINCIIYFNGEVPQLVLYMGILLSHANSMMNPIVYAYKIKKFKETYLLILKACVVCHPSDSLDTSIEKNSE
Experiment notes: Antagonist activity at human recombinant adenosine A3 receptor transfected in CHO cells assessed as reversal of NECA-induced inhibition of forskolin-induced adenylyl cyclase activity
Readout label: pEC50
# log scale: pEC50 equals minus log10 of the concentration in mol/L

Consider the reported pEC50 for these compounds:
{"Compound": "CCn1nnc([C@H]2O[C@@H](n3cnc4c(NC5CC5)nc(Cl)nc43)[C@H](O)[C@@H]2O)n1", "pEC50": 7.40}
{"Compound": "CCn1nnc([C@H]2O[C@@H](n3cnc4c(NCc5ccccc5I)nc(Cl)nc43)[C@H](O)[C@@H]2O)n1", "pEC50": 7.88}
{"Compound": "CCn1nnc([C@H]2O[C@@H](n3cnc4c(NC5CCCO5)ncnc43)[C@H](O)[C@@H]2O)n1 (stereo partly drawn)", "pEC50": 7.21}
{"Compound": "CCn1nnc([C@H]2O[C@@H](n3cnc4c(N)nc(Cl)nc43)[C@H](O)[C@@H]2O)n1", "pEC50": 7.50}
{"Compound": "CCn1nnc([C@H]2O[C@@H](n3cnc4c(NC5CC5)ncnc43)[C@H](O)[C@@H]2O)n1", "pEC50": 7.29}
{"Compound": "CCn1nnc([C@H]2O[C@@H](n3cnc4c(NC)ncnc43)[C@H](O)[C@@H]2O)n1", "pEC50": 8.20}
{"Compound": "CCn1nnc([C@H]2O[C@@H](n3cnc4c(NC)nc(Cl)nc43)[C@H](O)[C@@H]2O)n1", "pEC50": 8.11}

Param readout= pEC50; system= Adenosine receptor A3 (Homo sapiens, UniProt P0DMS8); entry= CCn1nnc([C@H]2O[C@@H](n3cnc4c(N)ncnc43)[C@H](O)[C@@H]2O)n1 ; returns value.
7.03

* * *

Target: Adenosine receptor A1 (Homo sapiens, UniProt P30542)
Sequence (P30542 whole entry): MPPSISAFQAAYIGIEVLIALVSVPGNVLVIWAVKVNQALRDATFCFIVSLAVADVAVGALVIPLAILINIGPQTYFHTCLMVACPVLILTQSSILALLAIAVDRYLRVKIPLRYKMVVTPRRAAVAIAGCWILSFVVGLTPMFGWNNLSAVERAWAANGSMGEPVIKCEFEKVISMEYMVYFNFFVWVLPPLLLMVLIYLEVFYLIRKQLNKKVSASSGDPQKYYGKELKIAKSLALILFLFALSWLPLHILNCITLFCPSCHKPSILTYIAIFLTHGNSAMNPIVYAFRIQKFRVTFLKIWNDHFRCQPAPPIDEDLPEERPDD
Experiment notes: Displacement of [3H]-CCPA from human recombinant adenosine A1 receptor transfected in CHO cells
pKi: −log10 of the molar value.
Rule: pKi of 9 or more gives condition met; anything lower gives condition not met.

Does CCn1nnc([C@H]2O[C@@H](n3cnc4c(NC)ncnc43)[C@H](O)[C@@H]2O)n1 have a reported pKi of at least 9?
condition not met

Does CCn1nnc([C@H]2O[C@@H](n3cnc4c(NC)nc(Cl)nc43)[C@H](O)[C@@H]2O)n1 have a reported pKi of at least 9?
condition not met

Does CCn1nnc([C@H]2O[C@@H](n3cnc4c(NC5CC5)nc(Cl)nc43)[C@H](O)[C@@H]2O)n1 have a reported pKi of at least 9?
condition met
